SYSTEM UNDER TEST: T1, Rhesus monkey glycophorin A on Rhesus monkey red blood cells (Rhesus monkey, UniProt A0A1D5Q349 20-150)
T1 construct: whole, on cells; also called Rhesus RBC; monkey GPA
T1 sequence: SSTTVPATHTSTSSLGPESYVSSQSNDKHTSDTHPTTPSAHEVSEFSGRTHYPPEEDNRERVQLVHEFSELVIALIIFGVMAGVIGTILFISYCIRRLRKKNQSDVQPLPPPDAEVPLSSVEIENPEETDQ
PROTOCOL NOTES: FACS, RBC Rh01
ENDPOINT LABEL: fluorescence intensity
A bare number is all that is needed in reply.

Answered cases to consult:
{"BINDER": "Hu6C12-5 (antibody, V domains shown, IgG format; VH.1e + Vk.1) VH: EVQLVQSGAEVKKPGASVKVSCKASGYTFTTYTIHWVRQAPGQGLEWMGYINPSSDYTRYNPKFKDRVTLTTDTSTSTAYMELRSLRSDDTAVYYCATGTRDYWGQGTTVTVSS VL: DIQLTQSPSFLSASVGDRVTITCSAASSVSYIYWYQQKPGKAPKLLIYSTSTLPSGVPSRFSGSGSGTEFTLTISSLQPEDFATYYCHQRNSFPFTFGQGTKLEIK", "fluorescence intensity": 1660}
{"BINDER": "Hu6C12-21 (antibody, V domains shown, IgG format; VH.1d + Vk.1b) VH: EVQLVQSGAEVKKPGASVKVSCKASGYTFTTYTIHWVRQAPGQGLEWMGYINPSSDYTRYNPKFKDRVTLTTDTSTSTAYMELRSLRSDDTAVYYCQRGTRDYWGQGTTVTVSS VL: DIQLTQSPSFLSASVGDRVTITCSAASSVSYIYWFQQKPGKAPKLLIYSTSTLPSGVPSRFSGSGSGTEYTLTISSLQPEDFATYYCHQRNSFPFTFGQGTKLEIK", "fluorescence intensity": 1470}
{"BINDER": "Hu6C12-7 (antibody, V domains shown, IgG format; VH.1g + Vk.1) VH: EVQLVQSGAEVKKPGASVKVSCKASGYTFTTYTIHWVRQAPGQGLEWIGYINPSSDYTRYNPKFKDRVTLTTDKSTSTAYMELRSLRSDDTAVYYCQTGTRDYWGQGTTVTVSS VL: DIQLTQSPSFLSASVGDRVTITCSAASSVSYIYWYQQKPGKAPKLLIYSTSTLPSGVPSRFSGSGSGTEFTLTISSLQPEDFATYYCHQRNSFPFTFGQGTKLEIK", "fluorescence intensity": 2060}

# evaluate next
Which fluorescence intensity is reported for this binder? Hu6C12-12 (antibody, V domains shown, IgG format; VH.1c + Vk.1a) VH: EVQLVQSGAEVKKPGASVKVSCKASGYTFTTYTIHWVRQAPGQGLEWMGYINPSSDYTRYNPKFKDRVTMTTDTSTSTAYMELRSLRSDDTAVYYCQTGTRDYWGQGTTVTVSS VL: DIQLTQSPSFLSASVGDRVTITCSAASSVSYIYWYQQKPGKAPKLLIYSTSTLPSGVPSRFSGSGSGTEYTLTISSLQPEDFATYYCHQRNSFPFTFGQGTKLEIK 1480
